- Test system: SW-620 colon
- protocol details: NCI-60 one-dose screen, 48 h
- condition description: 10 µM unless noted
About 83,000 compounds went through this panel and 20% of them were active in at least one assay; those are over-represented in the sample as a whole. Active and inactive are the calls of the source. How the source made its calls: active means growth percent below 10; inactive means the rest.
Pick from active, inactive when you respond.

Below, 3 molecules whose answers are already recorded.
1. COc1cc(-c2nc(SCCC(C)C)nc(N3CCOCC3)c2C#N)cc(OC)c1OC: inactive
2. CCN(CC)CCOc1ccc(Nc2ncc3cc(-c4ccc(O)cc4)c(=O)n(C)c3n2)cc1: active
3. C#CC#CC#CC#CC#CC#CC#CC#CC[C@H]1OC[C@@H](COC(=O)O[C@@H](C(=O)O[C@H]2C[C@@]3(O)[C@@H](OC(=O)c4ccccc4)[C@@H]4[C@]5(OC(C)=O)CO[C@@H]5C[C@H](O)[C@@]4(C)C(=O)[C@H](OC(C)=O)C(=C2C)C3(C)C)[C@@H](NC(=O)c2ccccc2)c2ccccc2)O1: inactive

# next molecule below
Query: # lookup: test call for CC(C)=CC(=O)N[C@@H]1CC2CCC3C(CC[C@@]4(C)C3CC[C@@H]4C(C)N(C)C)[C@@]2(C)C[C@@H]1O (some centres undefined)
Reply: inactive

###

- Tested on: CAKI-1 renal
- protocol details: NCI-60 one-dose screen, 48 h (100 = growth as untreated, 0 = no growth, -100 = all killed)
- condition description: 10 µM unless noted
- Experimental: Growth inhibition of the CAKI-1 human tumor cell line is measured as a screen for anti-cancer activity. Cells are grown in 96 well plates and exposed to the test compound for 48 hours. Compounds are tested at a single concentration, which is 10^-5 M for most compounds. The reported endpoint is percent growth (GI% or GIPRCNT), where numbers from 0 - 100% represent growth inhibition, and numbers from -100% - 0 represent cell death. For example, a value of 40 represents 60% growth inhibition. […]
About 83,000 compounds went through this panel and 20% of them were active in at least one assay; those are over-represented in the sample as a whole.
Entries and their growth
A number alone suffices; assume %.

Please review the following examples before continuing.
1) CNC(=O)c1c(NC(=O)c2ccc(C(C)(C)C)cc2)sc2c(CN(C)C)c(O)ccc12: -13.1
2) CC1(C)O[C@H]2OC3CCC(=O)CC3(O)[C@H]2O1 (stereo not given in full): 101
3) C#CCn1cnc2c(Nc3cccc(NC(=O)CCl)c3)ncnc21: 29.9
4) Cc1cc(C)c(-c2c(O)c(Br)c(-c3c(C)cc(C)c(Br)c3C)c(O)c2Br)c(C)c1Br: 5.75

Value of growth reported for the compound O=C1/C=C/[C@@H](O)[C@@H]2C[C@@H](O)C[C@H]2/C=C/CCC[C@H](CCOCc2ccccc2)O1 is -28.2

Record CC(=O)c1c(Nc2ccc(F)c(F)c2F)[nH]c2c(F)cc(F)cc2c1=O , field growth: -10.4

Consider COc1ccc2nc3cc(Cl)ccc3c(NCCN)c2c1 . Its measured growth is -96.5

###

- Test system: NCI-H522 lung
- protocol details: NCI-60 one-dose screen, 48 h
- condition description: 10 µM unless noted
About 83,000 compounds went through this panel and 20% of them were active in at least one assay; those are over-represented in the sample as a whole. The source made the active and inactive calls. Rule for the calls: active = growth percent below 10; inactive = the rest.
Answer with one of the outcomes active, inactive

Look over these answered cases.
1. COC(=O)Cc1nc(C#N)c(N(C)C)o1: inactive
2. COc1ccc(-c2ccc(=O)oc2C#Cc2cc(OC)c(OC)c(OC)c2)cc1O: active
3. CO[C@H](C(=O)[C@@H](O)[C@@H](C)O)[C@@H]1Cc2cc3cc(O[C@H]4C[C@@H](O[C@H]5C[C@@H](O)[C@H](O)C(C)O5)[C@H](O)C(C)O4)c(C)c(O)c3c(O)c2C(=O)[C@H]1O[C@H]1C[C@@H](O[C@H]2C[C@@H](O[C@H]3C[C@@H](OC)[C@H](O)C(C)O3)[C@@H](O)C(C)O2)C(O)(O)C(C)O1 (stereo partly specified): active
4. N#Cc1c(-c2ccccc2)c(C#N)c2c(C#N)c(N)nn2c1N: inactive
5. C[C@@H](CO)[C@@H]1CC[C@]2(C(=O)N3CCN(C)CC3)CC[C@]3(C)[C@H](CC[C@@H]4[C@@]5(C)CC[C@H](O)C(C)(C)[C@@H]5CC[C@]43C)[C@@H]12: inactive
6. N=C(N)c1ccc(-c2ccc(-c3ccc(F)cc3)s2)s1: active

Query: What call does the record list for Clc1nn2c(Cn3cnc4c(NCc5ccccc5)ncnc43)nnc2c2ccccc12 ?
Reply: inactive

Query: How did this test come out for COc1ccc2nc3ccccc3c(NCc3ccccc3)c2c1 ?
Reply: inactive

###

Catalogue of compounds with associated growth
- Tested on: A498 renal
- protocol details: NCI-60 one-dose screen, 48 h (100 = growth as untreated, 0 = no growth, -100 = all killed)
- condition description: 10 µM unless noted
The panel holds about 83,000 compounds, 20% with a hit somewhere; the sample as a whole holds those more often.
Answer with a number only, understood to be in %.

Some compounds with recorded growth:
1. CCCCn1sc(=O)n(Cc2ccc(CNC(=O)OCc3ccc4c(Br)cc(Br)c(O)c4n3)cc2)c1=O: -7.85
2. C=CCn1c(SCC(=O)Nc2ccc(C(=O)/C=C/c3cc(OC)c(OC)c(OC)c3)cc2)nnc1-c1cc(-c2ccc(OC)cc2)nc2ccccc12: 89
3. N#Cc1c(Nc2ccc(F)cc2)n[nH]c1-c1cccs1: 103

The value of growth measured for the compound CCOC(=O)c1c2c(n3c1NCC3)-c1ccccc1C2=O turned out to be 100

Form: compound = O=C1NC(=O)c2c1c1c3ccccc3[nH]c1c1oc3ccc(F)cc3c21 ; growth = -6.99

Measured growth of CCCn1c(=S)sc2c1nc(C)n1c(Nc3ccccc3)nnc21 : 57.2

The compound listed as O=C1N[C@@H]2[C@@H](O)[C@@H](O)[C@H](O)C[C@H]2c2cc3c(c(O)c21)OCCO3 shows growth equal to -29.7

The compound Cc1[nH]c(C(=O)Nc2cccc(OC3CCNCC3)c2)c(Cl)c1Cl showed growth equal to 25.1

Record c1ccc2cc(Cn3c[n+](Cc4ccc5ccccc5c4)c4ccccc43)ccc2c1 , field growth: -2.59

CC(O)c1ncc(/C=C2\SC(=S)N(Cc3ccccc3)C2=O)s1 (stereo not given) has a reported growth of 100

###

- Test system: SN12C renal
- protocol details: NCI-60 one-dose screen, 48 h (100 = growth as untreated, 0 = no growth, -100 = all killed)
- condition description: 10 µM unless noted
The panel holds about 83,000 compounds, 20% with a hit somewhere; the sample as a whole holds those more often.
reported property: growth (%)
Just the number in %, nothing appended.

In the examples that follow, each entry is paired with its recorded growth.
1. CC(C(=O)O)n1c(O)c(C=Nc2cccnc2)sc1=S (stereo unspecified): 88.7
2. CCCCCCC(=O)Nc1ncc(Cc2ccc(C)cc2)s1: 49.4
3. CCN(C(=O)N1CCN(c2cc3c(cc2F)c(=O)c(C(=O)O)cn3C2CC2)CC1)c1nc(-c2ccc(C)cc2)cs1: 5.47
4. COc1cc(C2=NN(C(C)=O)C(c3ccc(N(C)C)cc3)C2)cc(OC)c1OC (stereo unspecified): 86.4
5. Cc1ccc(O)c(NC(=O)c2ccc(CNc3ccnc(C(F)(F)F)c3)cc2)c1: 46.4

Would you kindly look at the next entry?
Sure, the documented growth for CCOC(=O)c1c(C)nn(CC(O)c2ccccc2)c1NC(=O)Nc1cccc(F)c1 (stereo unspecified) is 84.1

###

- System: COLO 205 colon
- protocol details: NCI-60 one-dose screen, 48 h
- condition description: 10 µM unless noted
The panel holds about 83,000 compounds, 20% with a hit somewhere; the sample as a whole holds those more often. Activity calls are given as the source filed them. Rule for the calls: active = growth percent below 10; inactive = the rest.
Answer with one of the outcomes active, inactive

Solved cases below.
1) COC(=O)c1ccc2c(c1)c1c(C)c3ccncc3c(C)c1n2C: active
2) COc1ccc(Cc2nnc(Nc3nc4ccccc4s3)s2)cc1: inactive
3) Cc1cccc(NC(=O)CSc2nc3ccc([N+](=O)[O-])cc3[nH]2)c1: inactive
4) COc1cc(/C=C2\CN(S(=O)(=O)c3ccc(C)cc3)C/C(=C\c3cc(CN4CCCCC4)c(O)c(OC)c3)C2=O)cc(CN2CCCCC2)c1O: active

Query: Outcome? CC(C)CSc1oc(-c2ccccc2)nc1S(=O)(=O)c1ccccc1
Reply: inactive

Query: # fetch the recorded call for COC(=O)Cc1nc(C#N)c(N(C)C)o1 here
Reply: inactive

Query: For CCN1C(=O)N(CC)C2C1NN=c1s/c(=C\c3cc4ccccc4[nH]3)c(=O)n12 (stereo unspecified) , what call appears in the results of this test?
Reply: active

Query: Status in this test for Cn1ncc2ccc(-c3nc(-c4ccccc4)[nH]c3-c3n[nH]c(=O)n3C3CC3)cc21 ?
Reply: inactive

Query: Outcome logged for Cn1ccnc1C(=O)/C=C/c1ccc(C(=O)Nc2ccc(F)cc2)cc1 in this assay:
Reply: inactive

Query: Status in this test for O=C(NCc1ccccc1O)c1cccc2ccccc12 ?
Reply: inactive

Query: I would be grateful if you could indicate the recorded call for CC/C=C\C/C=C/C=C1/C(=O)C=C[C@@H]1C/C=C\CCCC(=O)OC .
Reply: inactive

Query: Which result was noted for this compound in the test: CCOC(=O)c1ccc2c(c1)c1c(C)c3ccncc3c(C)c1n2C
Reply: active

Query: Please indicate how the test categorized CCOC(=O)c1c(C)c2c(n1C)CSc1cc(S(=O)(=O)c3ccccc3)c(=O)[nH]c1-2 .
Reply: active

Query: Hi team, can someone confirm the assay call for Cc1nc2sc(C(=O)Nc3ccc(Cl)cc3)c(N)c2cc1C(O)c1ccccc1 (stereo unspecified) ?
Reply: inactive

Query: Each compound tested received a call. Report the one for CCNC(=O)Oc1ccc(/C(=C(/C)Cc2ccc(OC)cc2)c2ccc(OCCN3CCCCCC3)cc2)cc1 .
Reply: inactive

Query: So what was the verdict on CN(CCC#N)c1ccc(/C=C2\NC(=O)NC2=O)cc1 in this test?
Reply: inactive

Query: Hi, sorry to bother you, what did the test record for CCOc1ccc(NC(=O)c2cc(OC)c(OC)c(OC)c2)cc1 ?
Reply: inactive

Query: Hey, what did the test say about O=C(CCl)Nc1ccc2c(Nc3cc(O)ccc3Cl)ncnc2c1 ?
Reply: active

Query: What was the test verdict on COc1cc(Nc2ncccc2NC(=O)c2cn(Cc3cccc(Oc4ccccc4)c3)nn2)cc(OC)c1 ?
Reply: inactive

Query: Per the records of this test, what outcome belongs to O=C(CCCCCCCCC(=O)N/N=C\c1cc(Cl)ccc1O)N/N=C\c1cc(Cl)ccc1O ?
Reply: inactive

Recorded values, source PubChem BioAssay (NCI).
